Tested on: primary human T-cells
Assay: T-cell proliferation assay (CellTiter-Glo)
Assay type: cell-based
Details: Homo sapiens, T-cell, 120 h; isomer A; CD3 antibody-stimulated T-cells, CellTiter-Glo after 5 days; read-out: Tcell Proliferation CD3 EC50
Catalogue of pEC50 values
Quick note: pEC50 values are minus log10 of concentrations in mol/L.

Some solved cases for reference:
CC(C)(c1nnc(-c2cc3c(cc2F)C(F)(F)CC(N)C(=O)N3Cc2ccc(Oc3ccccc3)cc2)o1)S(C)(=O)=O (racemic) : 6.16
CC(C)(C#N)c1nnc(-c2cc3c(cc2F)C(F)(F)C[C@@H](N)C(=O)N3Cc2ccc(-n3cc(C(F)(F)F)cn3)c(F)c2)o1 (single isomer, unassigned) : 6.30

Find the recorded pEC50 belonging to CC(C)(C#N)c1nnc(-c2cc3c(cc2F)C(F)(F)C[C@@H](N)C(=O)N3Cc2ccc(-n3cc(C(F)(F)F)cn3)nc2)o1 (single isomer, unassigned) and report it.
6.27
